The origin of these recorded values is the supplement of paper PMC6555819.

Examples of sequences with documented PBM binding z-score follow.
Tested on: PPARg:RXRa 90nM:30nM, anti-RXR (NR concentration 90 nM, RXRa partner concentration 30 nM)
Assay: PBM binding z-score (relative to random genomic background probes); higher = stronger binding; sequences stand for … in GC…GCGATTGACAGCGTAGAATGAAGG
// return a plain number; no unit text

Please review the entries below; each comes with its answer.
1) TCTCGGAGGACACGAAGGTCGGAGCTTTCCAGAG 1.67
2) GTCCCAAGGTGAATAGGTCGTTGATGAGTAGGCG 0.815
3) CTACCAAGGTGGACAAGGTCGTTGATTACTATTC -0.0308
4) CGAACTAGGCCATTGACAGGACAGTGAATAGTAA 0.972
5) TCTAGTTGGTCAAAGGTCACACCCTCGAAATGCG 12.2
6) TCATATAGGTAAATGCTAGGTGAAAGTCCGATCT 3.19
7) TCTTGCAGGCCAGAGGGTCACTCAAGAGGTACGG 3.38
8) AGAACGAGGGCGCGCTGAGTTGATAGCAGAGTAG -0.308

Now for a further sequence.
Supply PBM binding z-score measured with PPARg:RXRa 90nM:30nM, anti-RXR (NR concentration 90 nM, RXRa partner concentration 30 nM) for TCATATAAGTAAACAGGTGAAAGTCCGTAAGTTA .
3.57

###

Tested on: PPARg:RXRa IVT, anti-PPARg (NR concentration 270 nM, RXRa partner concentration 90 nM)
Assay: PBM binding z-score (relative to random genomic background probes); higher = stronger binding; sequences stand for … in GC…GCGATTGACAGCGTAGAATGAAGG
Decide by PBM binding z-score: equal to or exceeding 1 means Y, less means N.

Illustrative cases are given below, each with its answer.
1. AGAACGAGGGCACTCTGAGTTGATAGCAGAGTAG Y
2. AGAATGAGGTGATACGTAGATCAGGGAAGAAAGT Y
3. GCATATAGGTAATACTAGGTGAAAGTCCGATTGT Y
4. TTACCAACGTGAAAGGTCGTTGATGCACGCCTTG Y
5. GCTGCTAGGTCAGGTTGGTCAGCTGACGGGTACG Y

Would you kindly look at the next entry?
Decide: is the reported value of PBM binding z-score for ATACCAAGGTGATCGTGTGGTCGTTGATACTAAC equal to or greater than 1?
N

###

Test system: RARb homodimer (NR concentration 270 nM)
Assay: PBM binding z-score (relative to random genomic background probes); higher = stronger binding; sequences stand for … in GC…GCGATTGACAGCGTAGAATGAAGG
testReadout: PBM binding z-score

Sample records with PBM binding z-score:
1) GCATATAGGTAATACAAGGTGAAATTCCGATTGT 0.44
2) CCTATTAGTTGACCCTAAGGGCAACCGAAGCTCG 3.48
3) GGAACGAGGGCATTCGAGTTGATGGCATGGCGAT 0.552
4) AGTCAAAGTTCACTAGGTGACGTAAGATTCAGCT 4
5) TCTATTACTTGAAGGGCAACCGACGAGTCCGTTT 1.51
6) CCGAGTAGGTTATAGGGCATTCAGGCAACGGTGA 1.33

// fetch PBM binding z-score; item: TCCATTAGTTGATTAGGGCAACCGAAACAGCGGA ; system: RARb homodimer (NR concentration 270 nM)
0.875

Return reported PBM binding z-score for target or system RARb homodimer (NR concentration 270 nM), item CGGCCAAGGTCAGCAGGTCAGTGAAAGCGACGTG .
5.01

Give PBM binding z-score only, for CCTTAAGGGTCACTGACAGGTTATAGCATTTGGA , using RARb homodimer (NR concentration 270 nM) data.
4.71

Look up and report measured PBM binding z-score (RARb homodimer (NR concentration 270 nM)) for the following sequence: ACAAACAGGTGATGAAGGTAACTCAGGCTATCAT
0.731

Print RARb homodimer (NR concentration 270 nM) PBM binding z-score for GCTGCTAGGTCAACTGATGGTCAGCGAAAGCTCG .
3.66

Provide PBM binding z-score, system RARb homodimer (NR concentration 270 nM), entry CGTCAAATTTCAAGGTAACGTAACAGAAAGCAGC
-0.107

###

Test system: PPARg:RXRa 270nM:90nM, anti-RXR (NR concentration 270 nM, RXRa partner concentration 90 nM)
Assay: PBM binding z-score (relative to random genomic background probes); higher = stronger binding; sequences stand for … in GC…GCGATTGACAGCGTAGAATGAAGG
Quick list: PBM binding z-score per entry.
Enter a number only.

Respond only with PBM binding z-score recorded for TTACCAAGGTGAGAGGTCGTTGATGCACGCCTTG
6.4

Give recorded PBM binding z-score. ACAGACAGGAGATGAAGGTAACTCAGGCTATCAT
0.278

Give PBM binding z-score for GCTCGTTGGTCAGTAAAAGGTCACACACCGGTCG
4.93

Please give measured PBM binding z-score of the following entry: TCTGTTAGTTGAAGGGCAACCGACGAGTCCGTTT
1.91

Determine from records and report PBM binding z-score for CCTCCTGGGCCACGAAAGGTCATTGATTCAGTGA
2.94

###

Measured PBM binding z-score values are reported for all entries that follow.
Test system: RARa homodimer (NR concentration 270 nM)
Assay: PBM binding z-score (relative to random genomic background probes); higher = stronger binding; sequences stand for … in GC…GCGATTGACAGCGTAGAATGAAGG
// print number alone

Sample answers from the record:
1) TCGAGTAGGTTACCAGTGGGGCATTCAGCTTTCT -1.02
2) CGAACTAGGTCAGAACAGGAAAGTGAAGGATGAT -0.00201
3) GCTCGGCGGACAAGGTCAGAGCTTTGTCCGTAGA -0.932
4) TCATATAGGTAAAAGGTGGAAGTCGGTGTGGTAA 1.17
5) TCGGCTAGGTCAACGATGGTCAGCTAATCTGCTA -0.329

Quote RARa homodimer (NR concentration 270 nM) PBM binding z-score for entry AGAAAGAGGTTACCAAAGATCAGGGAAACGCTTG .
0.245

###

PBM binding z-score: recorded values
System: PPARg homodimer (NR concentration 180 nM)
Test: PBM binding z-score (relative to random genomic background probes); higher = stronger binding; sequences stand for … in GC…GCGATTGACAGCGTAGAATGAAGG
// print number alone

1) TAGCCTAGGTCATTCAGTGGCCAGTATAGAAAGC 1.28
2) CCTCGGAGGACGGAAGGTCAGAGCTGTCCGCTTT 1.18
3) AGAGTGAGGTTAAGATCAGGGAAACAGAATACAT 1.63
4) GCGACTGGGGCAAAGCACGTTACCATAAGGTTGG 0.0548
5) GGTGCTAGGTCAGGTTGGTCAGCTAACGGGTACG 1.8

Here is the next item to consider.
Name the recorded PBM binding z-score of the sequence listed here: TCTTGTAGAGCAACAGGAGGTTAAGAAAGATCGA
-0.265

###

System: LXRb homodimer (NR concentration 270 nM)
Assay: PBM binding z-score (relative to random genomic background probes); higher = stronger binding; sequences stand for … in GC…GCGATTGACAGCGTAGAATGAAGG
testReadout: PBM binding z-score

1. ACAGACAGGAGAGTGAAGGTAACTCAGCTGGACG 0.885

Check the records and state PBM binding z-score for CGTCCAAGGTCCGAGAGGTCAGTGAATGCCGAGT
-0.631

Note down PBM binding z-score recorded for GATACAGGGTCAGCTAGAGGCCAGAGTTTGGAAA
-0.678

Answer with the recorded PBM binding z-score of TCGTATAGGTAAATGCTAGGTGAAAGTCCGATCT only.
0.0986

Please give the documented PBM binding z-score of CCTAGCAGGCCAATCTGTGTCACTCAAGGCTTGA
-0.193

Find the measured PBM binding z-score of TCGAGTAGGTTAGACGGGGCATTCAGCCAACATA and report it.
-0.523

State, in one line, measured PBM binding z-score of GCTAGCAGGCCATTTGGTTCACTCAATGACGGGC
-0.937

Give reported PBM binding z-score value for TCTTGTTGATCAACAGGAGGTTAAGAAAGATCGA
-0.0113

Look up and state reported PBM binding z-score for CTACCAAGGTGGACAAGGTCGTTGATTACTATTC
-0.653

Give me measured PBM binding z-score, please, for this sequence: GCTAGCAGGCGATTTGGGTCACTCAATGACGGGC
-0.929

Please look at this sequence and report its PBM binding z-score: CTCGAAAGGTCGTGCTCAGGTGAGTTTACCAAAC
0.366

// fetch PBM binding z-score given entry CCTGCTAGGTCAATGGTCAGATAAAGCAGCTCGC
-0.124

For the sequence GCTTGTAGATAAAGGTTAAGAAAGACTAAGCTAA , give its reported PBM binding z-score.
-0.409

Give the measured PBM binding z-score for ATCGAAAGGTCGACGAGATGAGTATACACCGTTT
0.483
